- Protocol: NCI Yeast Anticancer Drug Screen. Data for the bub3 strain (AID 167)
- Test Parameters: S. cerevisiae bub3 mutant strain, at 50.0 µM, stronger effect = higher value
- Description: Growth inhibition of yeast strains with defined genetic alterations is measured as a screen for potential anti-cancer activity. Selected strains with alterations in DNA damage repair or cell cycle control were exposed to compounds and growth inhibition was measured relative to vehicle treated controls. The strain used in this assay is bub3
This is part of a sample that, as a whole, favours compounds with a hit. Of some 79,000 tested, about 15% had one in any assay. The source made the active and inactive calls. Rule as the data show it: active = growth inhibition above about 70%; inactive = the rest.
Endpoint: growth inhibition

// for each compound below, give its growth inhibition
1. CN(C)CCOC(=O)C1(CCC2CCCCC2)CCCCC1
2. COc1cc(OC)c(OC)cc1/C=C\c1nccc2ccccc12
3. N#C/C(=C/c1ccc([N+](=O)[O-])o1)c1ccccc1
4. Oc1ccc(C2CCc3ccccc32)cc1 (stereo unspecified)
5. CCOC(=O)CC1(C)C(=O)CCCC1=O
6. O=[N+]([O-])c1ccc(CC(c2ccc([N+](=O)[O-])cc2)(c2ccc([N+](=O)[O-])cc2)c2ccc([N+](=O)[O-])cc2)cc1
7. CC(=O)c1c(O)c2cccc3c2n(c1=O)CCC3
8. CC(C)(CN1CCCCC1)C(=O)CC(SCCS(=O)(=O)O)c1ccc(Cl)c(Cl)c1 (stereo unspecified)

Response:
85% (active)
91.3% (active)
-13.7% (inactive)
99.5% (active)
-6.7% (inactive)
41% (inactive)
84.4% (active)
98% (active)
